# Lookup of reported MIC keyed by entry
Tested on: Mycobacterium tuberculosis
Test Method Notes: Antimycobacterial activity against Mycobacterium tuberculosis H37Rv by two fold agar dilution method
Assay type: functional
Field: numeric (µg/mL). Do not append units.

Mol Smiles | Measurement Target | MIC, µg/mL
Cc1c(NCc2nnc(Nc3ccc(O)cc3)o2)c(=O)n(-c2ccccc2)n1C | Mycobacterium tuberculosis | 10

Problem: Could you tell me which MIC is on file for Cc1c(NCc2nnc(Nc3ccc(F)c(Cl)c3)o2)c(=O)n(-c2ccccc2)n1C ?
Solution: 6.25

Problem: Could you tell me which MIC is on file for Cc1c(Cl)cccc1Nc1nnc(CNc2c(C)n(C)n(-c3ccccc3)c2=O)o1 ?
Solution: 10

Problem: Could you tell me which MIC is on file for Cc1ccc(Nc2nnc(CNc3c(C)n(C)n(-c4ccccc4)c3=O)o2)c(C)c1 ?
Solution: 12.5

Problem: Could you tell me which MIC is on file for Cc1c(NCc2nnc(Nc3ccc([N+](=O)[O-])cc3)o2)c(=O)n(-c2ccccc2)n1C ?
Solution: 3.12
